Origin of measurements: patent US20240218022A1

TARGET OR TEST SYSTEM: mouse VISTA (mVISTA) (Mus musculus, UniProt Q9D659)
Construct: expressed in transfected cells; host or cells: Human embryonic kidney 293T cells
Sequence (Q9D659 33-308): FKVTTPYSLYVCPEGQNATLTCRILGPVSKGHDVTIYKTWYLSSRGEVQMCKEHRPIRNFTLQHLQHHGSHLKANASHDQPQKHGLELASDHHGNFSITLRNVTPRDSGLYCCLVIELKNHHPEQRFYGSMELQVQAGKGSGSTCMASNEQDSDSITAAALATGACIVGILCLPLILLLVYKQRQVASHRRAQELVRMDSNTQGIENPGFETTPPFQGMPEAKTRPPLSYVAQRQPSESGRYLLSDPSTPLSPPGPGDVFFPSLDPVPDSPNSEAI
MEASUREMENT PROTOCOL: Cell-Based Binding High-Content Assay For mVISTA (HC CBA mVISTA)
TEST CONDITIONS: cell-based binding high-content assay, mVISTA; the 15th table; read-out: HC CBA mVISTA IC50
Source text: Cell-Based Binding High-Content Assay For mVISTA Human embryonic kidney 293T cells (293T) expressing mouse VISTA (mVISTA) were used for the assessment of compounds competing with the binding of a biotinylated peptide. […] The plates were washed 3 times in dPBS, sealed, and read on a CellInsight NXT High Content Screening Platform IC903000 (Thermo Scientific). […]
Positions of bridges follow the written chain, without caps; N, C: chain ends. Non-standard residues stand in square brackets, D forms with d. Residues, ends and D or L forms follow the SMILES beside them. 2Nal = N[C@@H](Cc1ccc2ccccc2c1)C(=O)O; NMeL = CN[C@@H](CC(C)C)C(=O)O; Ahp(2) = CCCCC[C@H](N)C(=O)O; NMeNle = CCCC[C@H](NC)C(=O)O; NHexGly = CCCCCCNCC(=O)O; Nle = CCCC[C@H](N)C(=O)O
This listing pairs molecules with measured IC50.
Please give a number only; it is taken to be in nM.

molecule="CCCCCCN1CC(=O)N[C@@H](Cc2ccc(O)cc2)C(=O)N[C@@H](CCCC)C(=O)N[C@@H](CC(N)=O)C(=O)N[C@@H](CCCNC(=N)N)C(=O)N(C)[C@@H](CC(C)C)C(=O)N[C@@H](CCCCC)C(=O)N2CCC[C@H]2C(=O)N[C@@H](C(C)C)C(=O)N[C@@H](CC(=O)O)C(=O)N[C@H](C(=O)NCC(=O)O)CSCC(=O)N[C@@H](Cc2ccc3ccccc3c2)C(=O)N[C@@H](Cc2c[nH]c3ccccc23)C(=O)N[C@@H](CC(=O)O)C1=O [compound 1239] ({CH2CO}-[2Nal]WD[NHexGly]Y[Nle]NR[NMeL][Ahp(2)]PVDCG-OH; thioether N-14)" measured_property=IC50 measurement_unit=nM recorded_measurement=3.2

Attention now shifts to the item below.
Please give measured IC50 of the following entry: CCCCCCN1CC(=O)N[C@@H](Cc2ccc(O)cc2)C(=O)N[C@@H](CCCC)C(=O)N[C@@H](CC(N)=O)C(=O)N[C@@H](CCCNC(=N)N)C(=O)N(C)[C@@H](CCCC)C(=O)N[C@@H](CCCCC)C(=O)N2CCC[C@H]2C(=O)N[C@@H](C(C)C)C(=O)N[C@@H](CO)C(=O)N[C@H](C(=O)NCC(=O)O)CSCC(=O)N[C@@H](Cc2ccc3ccccc3c2)C(=O)N[C@@H](Cc2c[nH]c3ccccc23)C(=O)N[C@@H](CC(=O)O)C1=O [compound 1247] ({CH2CO}-[2Nal]WD[NHexGly]Y[Nle]NR[NMeNle][Ahp(2)]PVSCG-OH; thioether N-14) 35.2
